Experiment: Acrylamide quenching of Trp fluorescence in absence and presence of lipid vesicles
Format: physicochemical
Settings: no lipid vesicles; 2 μM peptide in PBS pH 7.0; λex 295 nm, λem 340; average of three replicates ± SD
Protocol: To form small unilamellar vesicles (SUVs) sonication or ethanol dilution methods were implemented ([Caputo & London, 2019]). In all cases, lipid vesicle preparation was the same. […] Acrylamide quenching was monitored by titration of samples with 10 μL aliquots of 4M acrylamide titrated into peptide samples prepared as described above. […] After each addition of acrylamide, Trp fluorescence intensity was measured using λex = 295 nm and λem = 340. […]
Ends that are not written are not given here.
# cutoff 8 M⁻¹ applies to Acrylamide quenching Ksv, PBS; >= gives condition met, < gives condition not met

INSERT INTO assay_data (seq_text, category_label) VALUES
  ('FFKEFWTKMKGAGKAFFGKFKGFF [L1F]', 'condition not met'),
  ('IIKEIWTKMKGAGKAIIGKIKGII [L1I]', 'condition met'),
  ('VVKEVWTKMKGAGKAVVGKVKGVV [L1V]', 'condition met');

API: the following record is the query input.
Incoming: Given LLKELWTKMKGAGKALLGKLKGLL [L1L] , state whether its Acrylamide quenching Ksv, PBS is at least 8 M⁻¹.
Outgoing: condition not met
